RUN DESCRIPTION: in vivo
CONDITION LABEL: nude, mouse, in vivo, iv, total radioactivity, % ID/org Blood
RECORDED METRIC: tissue uptake dose at 1 h (%ID)
A number alone suffices; assume %ID.

Could you share which tissue uptake dose at 1 h value was measured for NC(=O)[C@@H](CCCCNC(=O)CNC(=O)CCC(=O)NCCc1c[nH]cn1)NC(=O)[C@@H](Cc1ccc(O)cc1)NC(=O)[C@@H](CCCCNC(=O)CNC(=O)CCC(=O)NCCc1c[nH]cn1)NC(=O)Cc1ccc(CN2CCN(CC(=O)O)CCN(CC(=O)O)CC2)cc1 [Al^18F(IMP485)] ?
0.456
